Value source: PubChem BioAssay (NCI)

Tested on: T-47D breast
PROCEDURE_TEXT: NCI-60 one-dose screen, 48 h (100 = growth as untreated, 0 = no growth, -100 = all killed)
CONDITION: 10 µM unless noted
Compounds without any hit were thinned out: in the full panel of roughly 83,000, 20% have a hit.
For each entry below, report its growth value.
Answers are plain numbers, in %.

Solved entries:
[
  {
    "MOLECULE": "Oc1cccc(Nc2nccc(-c3ccc4ccccc4c3)n2)c1",
    "READOUT_NAME": "growth",
    "RESULT_NUMBER": 47.6
  },
  {
    "MOLECULE": "CCOC(=O)Cc1cnn(C)c1NC(=O)c1ccc(Cl)cc1NC(C)=O",
    "READOUT_NAME": "growth",
    "RESULT_NUMBER": 103
  },
  {
    "MOLECULE": "Cc1ccc(C2CC3c4ccccc4C2C2CCCCN32)cc1 (stereo unspecified)",
    "READOUT_NAME": "growth",
    "RESULT_NUMBER": 83.6
  },
  {
    "MOLECULE": "CN[C@@]12CC3(C=CC(=O)C=C3)O[C@]1(Cc1ccc(OC)cc1)N(C)C(=O)N2",
    "READOUT_NAME": "growth",
    "RESULT_NUMBER": 47.8
  },
  {
    "MOLECULE": "CCOC(=O)C(C#N)C1CCCCC1 (stereo unspecified)",
    "READOUT_NAME": "growth",
    "RESULT_NUMBER": 91.1
  }
]

Next item in the queue.
Fill in: growth of CC1(C)OCC2OC3(C(=O)O)OC(C)(C)OC3C2O1 (stereo unspecified) is ___ 95.4
